Each recorded value in this set is attributed to patent US9790216B2.

target or test system: human fatty acid synthase FASN (Homo sapiens)
Construct: human recombinant full-length fatty acid synthase
test protocol: Biochemical activity testing of human fatty acid synthase FASN (NADPH fluorescence intensity enzyme assay)
assay setup: human recombinant full-length FASN, inhibition
pIC50: −log10 of the molar value.
endpoint label: pIC50

Here is how some molecules turned out for pIC50.
CN(C(=O)c1ccc(-c2ccccc2)cc1)[C@@H]1CC[C@H](n2cc(C3CC3)nn2)C1 (racemic): 4.30 to 5.52
CCc1nnc([C@H]2CC[C@@H](N(C)C(=O)c3ccc(-c4nc5ccccc5[nH]4)cc3)C2)o1: > 6.52
CCCc1nnc([C@H]2CC[C@@H](N(C)C(=O)c3ccc(-c4ccccc4)cc3)C2)o1: > 6.52
CC(C)c1nnc([C@H]2CC[C@@H](N(C)C(=O)c3ccc(-c4ccncc4)cc3)C2)o1: 5.52 to 6.52
CCc1nnc([C@H]2CC[C@@H](N(C)C(=O)c3ccc(-c4nc5ccccc5o4)cc3)C2)o1: > 6.52
Cc1nnc([C@H]2CC[C@@H](N(C)C(=O)c3ccc(-c4nc5ccccc5o4)cn3)C2)o1: 5.52 to 6.52

Here is the next item to consider.
(Q) Read the entry CCCc1nnc([C@H]2CC[C@@H](N(C)C(=O)c3ccc(C#Cc4ccc(F)cc4)cc3)C2)o1 and write its reported pIC50.
(A) > 6.52

---

Below, each of the compounds is paired with its reported pIC50 value.
target or test system: human fatty acid synthase FASN (Homo sapiens, UniProt P49327)
Construct: human recombinant full-length fatty acid synthase
Sequence (P49327 whole entry): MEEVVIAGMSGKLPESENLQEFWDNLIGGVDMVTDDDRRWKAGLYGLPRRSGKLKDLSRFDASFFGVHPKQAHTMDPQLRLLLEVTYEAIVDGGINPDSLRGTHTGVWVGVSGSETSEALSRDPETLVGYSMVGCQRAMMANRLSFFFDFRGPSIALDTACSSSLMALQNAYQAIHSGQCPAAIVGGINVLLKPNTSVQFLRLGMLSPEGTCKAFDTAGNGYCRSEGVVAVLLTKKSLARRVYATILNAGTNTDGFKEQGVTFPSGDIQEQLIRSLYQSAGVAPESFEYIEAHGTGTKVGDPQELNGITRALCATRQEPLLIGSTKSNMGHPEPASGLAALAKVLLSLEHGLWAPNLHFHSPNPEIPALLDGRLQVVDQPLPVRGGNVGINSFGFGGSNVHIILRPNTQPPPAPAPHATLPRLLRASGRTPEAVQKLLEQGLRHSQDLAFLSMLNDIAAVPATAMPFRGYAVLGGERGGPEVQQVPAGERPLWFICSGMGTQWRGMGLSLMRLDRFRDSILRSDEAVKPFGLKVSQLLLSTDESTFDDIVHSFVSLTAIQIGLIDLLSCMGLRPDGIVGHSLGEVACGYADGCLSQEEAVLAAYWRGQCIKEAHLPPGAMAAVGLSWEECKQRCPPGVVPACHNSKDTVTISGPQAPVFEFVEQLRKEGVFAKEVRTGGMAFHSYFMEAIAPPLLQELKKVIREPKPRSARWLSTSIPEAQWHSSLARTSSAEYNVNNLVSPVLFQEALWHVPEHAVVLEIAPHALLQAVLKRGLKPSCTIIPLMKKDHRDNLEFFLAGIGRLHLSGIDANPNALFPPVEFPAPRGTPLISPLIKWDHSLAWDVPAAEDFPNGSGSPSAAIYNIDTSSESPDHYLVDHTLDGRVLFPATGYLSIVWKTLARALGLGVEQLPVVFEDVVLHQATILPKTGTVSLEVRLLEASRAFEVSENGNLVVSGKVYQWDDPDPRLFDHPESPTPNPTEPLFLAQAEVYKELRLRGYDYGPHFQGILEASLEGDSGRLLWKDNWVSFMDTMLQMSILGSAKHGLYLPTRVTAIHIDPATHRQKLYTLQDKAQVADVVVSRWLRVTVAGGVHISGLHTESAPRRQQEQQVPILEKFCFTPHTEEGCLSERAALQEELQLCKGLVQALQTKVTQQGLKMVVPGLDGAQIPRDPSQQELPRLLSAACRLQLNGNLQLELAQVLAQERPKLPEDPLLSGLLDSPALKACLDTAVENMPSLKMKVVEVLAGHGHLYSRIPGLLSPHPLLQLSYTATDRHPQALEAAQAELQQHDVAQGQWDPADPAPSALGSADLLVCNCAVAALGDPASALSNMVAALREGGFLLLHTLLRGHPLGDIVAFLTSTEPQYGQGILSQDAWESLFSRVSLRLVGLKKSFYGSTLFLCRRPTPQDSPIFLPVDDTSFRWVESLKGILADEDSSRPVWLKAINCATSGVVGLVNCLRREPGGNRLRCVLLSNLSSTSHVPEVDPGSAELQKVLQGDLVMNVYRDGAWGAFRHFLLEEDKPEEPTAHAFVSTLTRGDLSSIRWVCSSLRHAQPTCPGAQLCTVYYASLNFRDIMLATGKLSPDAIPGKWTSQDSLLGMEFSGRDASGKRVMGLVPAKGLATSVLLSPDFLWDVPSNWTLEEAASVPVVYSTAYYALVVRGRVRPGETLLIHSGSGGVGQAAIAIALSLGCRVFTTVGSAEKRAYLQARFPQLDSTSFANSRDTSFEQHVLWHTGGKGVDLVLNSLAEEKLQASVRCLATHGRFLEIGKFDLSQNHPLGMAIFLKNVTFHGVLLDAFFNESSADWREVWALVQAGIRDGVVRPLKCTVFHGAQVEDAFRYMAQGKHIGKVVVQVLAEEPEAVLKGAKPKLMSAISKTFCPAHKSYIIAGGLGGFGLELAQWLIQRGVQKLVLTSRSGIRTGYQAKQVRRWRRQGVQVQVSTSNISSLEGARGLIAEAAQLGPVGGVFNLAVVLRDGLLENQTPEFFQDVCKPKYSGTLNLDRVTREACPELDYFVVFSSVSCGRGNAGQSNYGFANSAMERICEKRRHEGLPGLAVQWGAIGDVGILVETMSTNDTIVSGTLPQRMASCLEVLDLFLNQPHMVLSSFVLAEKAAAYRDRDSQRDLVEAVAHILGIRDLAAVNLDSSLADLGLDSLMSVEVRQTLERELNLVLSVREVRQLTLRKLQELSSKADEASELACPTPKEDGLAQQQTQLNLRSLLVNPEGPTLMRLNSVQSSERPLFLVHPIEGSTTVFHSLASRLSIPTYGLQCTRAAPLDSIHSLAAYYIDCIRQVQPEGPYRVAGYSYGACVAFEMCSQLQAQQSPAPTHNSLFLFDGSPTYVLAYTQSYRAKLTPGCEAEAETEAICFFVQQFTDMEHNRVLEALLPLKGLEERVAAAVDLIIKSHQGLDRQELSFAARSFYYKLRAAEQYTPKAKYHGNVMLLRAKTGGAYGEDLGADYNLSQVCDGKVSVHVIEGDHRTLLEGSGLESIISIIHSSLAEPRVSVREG
test protocol: Biochemical activity testing of human fatty acid synthase FASN (NADPH fluorescence intensity enzyme assay)
assay setup: human recombinant full-length FASN, inhibition
pIC50: −log10 of the molar value.

Here is how some compounds turned out for pIC50.
CC(C)c1nnc([C@H]2CC[C@@H](N(C)C(=O)c3ccc(-c4nc5ccccc5o4)cc3)C2)o1: > 6.52
Cc1coc([C@H]2CC[C@@H](N(C)C(=O)c3ccc(-c4nc5ccccc5o4)cc3)C2)n1: 5.52 to 6.52
Cc1nnc([C@H]2CC[C@@H](N(C)C(=O)c3ccc(-c4nc5ccccc5[nH]4)cc3)C2)o1: > 6.52
CC(C)c1nnc([C@H]2CC[C@@H](N(C)C(=O)c3ccc(-c4nc5ccccc5[nH]4)cc3)C2)o1: > 6.52
COc1cc(C(=O)N(C)[C@@H]2CC[C@H](c3nnc(C)o3)C2)ccc1-c1nc2ccccc2o1: > 6.52

(Q) Read the entry CCc1nnc([C@H]2CC[C@@H](N(C)C(=O)c3ccc(-c4ccc(C#N)cc4)cc3)C2)o1 and write its reported pIC50.
(A) > 6.52

(Q) Read the entry CCCc1cn([C@H]2CC[C@@H](N(C)C(=O)c3ccc(-c4ccccc4)cc3)C2)nn1 (racemic) and write its reported pIC50.
(A) 4.30 to 5.52

---

target or test system: human fatty acid synthase FASN (Homo sapiens)
Construct: human recombinant full-length fatty acid synthase
test protocol: Biochemical activity testing of human fatty acid synthase FASN (NADPH fluorescence intensity enzyme assay)
assay setup: human recombinant full-length FASN, inhibition
pIC50: −log10 of the molar value.
Below, each of the compounds is paired with its reported pIC50 value.

Here is how some compounds turned out for pIC50.
Cc1nnc([C@H]2CC[C@@H](N(C)C(=O)c3ccc(-c4nc5ccccc5o4)cc3)C2)o1 [Compound A13]: > 6.52
Cc1nnc([C@H]2CC[C@@H](N(C)C(=O)c3ccc(C#Cc4ccc(Cl)cc4)cc3)C2)o1 [Compound A21]: > 6.52
Cc1nnc([C@H]2CC[C@@H](N(C)C(=O)c3ccc(-c4ccccc4)cc3)C2)o1 [Compound A24]: > 6.52
Cc1nnc([C@H]2CC[C@@H](N(C)C(=O)c3ccc(-c4nc5ccccc5s4)cc3)C2)o1 [Compound A14]: > 6.52
Cc1nnc([C@H]2CC[C@@H](N(C)C(=O)c3ccc(-c4ccncc4)cc3)C2)o1 [Compound A15]: 5.52 to 6.52
CC(C)c1nnc([C@H]2CC[C@@H](N(C)C(=O)c3ccc(-c4ccc(C#N)cc4)cc3)C2)o1 [Compound A10]: > 6.52

Here is the next item to consider.
(Q) Read the entry Cc1nnc([C@H]2CC[C@@H](N(C)C(=O)c3ccc(C#Cc4ccncc4)cc3)C2)o1 [Compound A22] and write its reported pIC50.
(A) 5.52 to 6.52
